Sourced from patent US20240132431A1

# study target: Bcl-2 protein (Recombinant Human Bcl-2 Protein) (Homo sapiens)
# Construct: purchased Novus NBP2-34889
# measurement description: Binding evaluation of mixture library compounds to Bcl-2 using AS-MS (affinity selection mass spectrometry)
# experimental parameters: AS-MS, mixture library, Bcl-2; replicate n = 2; ASMS Ratio(%)=(A−C)/B×100
property measured: ASMS ratio (%) n = 2
Enter your answer as a number in %; do not include the unit.

Worked examples, 3 molecules total:
CCOc1cncc(C#Cc2cc(C(=O)N3CCN(c4ccc(C(=O)NS(=O)(=O)CC56CC7CC(CC(C7)C5)C6)nn4)CC3)cc(C(F)(F)F)c2)c1 ... 8.9
CCOc1cccc(-c2ccc(C(=O)N3CCN(c4ccc(C(=O)NS(=O)(=O)CC56CC7CC(CC(C7)C5)C6)nn4)CC3)c3ccccc23)c1 ... 17.8
CCOc1cccc(-c2csc(C(=O)N3CCN(c4ccc(C(=O)NS(C)(=O)=O)cc4)CC3)c2)c1 ... 0.0

Return reported ASMS ratio (%) n = 2; argument: "CCOc1cncc(-c2cc(CN3CCN(c4ccc(C(=O)NS(=O)(=O)c5ccc(NCCSc6ccccc6)c([N+](=O)[O-])c5)cc4)CC3)cc(C(F)(F)F)c2)c1" −3.3

Also check "CCOc1cccc(-c2ccc(CN3CCN(c4ccc(C(=O)NS(=O)(=O)c5ccc(NCCSc6ccccc6)c([N+](=O)[O-])c5)nn4)CC3)cc2C)c1" 0.0

----------
Entries annotated with measured ASMS ratio (%) n = 2
# study target: Bcl-2 protein (Recombinant Human Bcl-2 Protein) (Homo sapiens, UniProt P10415)
# Construct: purchased Novus NBP2-34889
# Sequence (P10415 whole entry): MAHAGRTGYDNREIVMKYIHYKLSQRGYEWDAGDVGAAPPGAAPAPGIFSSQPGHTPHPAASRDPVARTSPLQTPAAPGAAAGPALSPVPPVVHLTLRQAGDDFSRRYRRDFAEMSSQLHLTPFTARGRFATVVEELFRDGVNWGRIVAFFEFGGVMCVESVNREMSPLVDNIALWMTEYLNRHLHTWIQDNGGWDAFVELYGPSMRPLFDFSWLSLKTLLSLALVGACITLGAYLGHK
# measurement description: Binding evaluation of mixture library compounds to Bcl-2 using AS-MS (affinity selection mass spectrometry)
# experimental parameters: AS-MS on the mixture of 1200 library compounds; ASMS Ratio(%)=(A−C)/B×100; replicate n = 2
Write the figure, then the unit, nothing else.

Solved entries (count: 6):
CCOc1cncc(-c2ccc(CN3CCN(c4ccc(C(=O)Nc5ccc(OC)cc5)cc4)CC3)c3ccccc23)c1 ... 2.7%
CCOc1cccc(-c2cc(C(=O)N3CCN(c4ccc(C(=O)N(C)CC56CC7CC(CC(C7)C5)C6)nn4)CC3)cc(C(C)(C)C)c2)c1 ... 3.0%
CCOc1cccc(-c2cc(CN3CCN(c4ccc(C(=O)N(C)CC56CC7CC(CC(C7)C5)C6)nn4)CC3)cc(OC(C)C)c2)c1 ... −18.6%
CCOc1cncc(-c2ccc(CN3CCN(c4ccc(C(=O)N(C)CC56CC7CC(CC(C7)C5)C6)nn4)CC3)c3ccccc23)c1 ... −1.9%
CCOc1cccc(-c2csc(C(=O)N3CCN(c4ccc(C(=O)N(C)CC56CC7CC(CC(C7)C5)C6)cc4)CC3)c2)c1 ... 1.7%
CCOc1cccc(-c2ccc(C(=O)N3CCN(c4ccc(C(=O)Nc5ccc(OC)cc5)cc4)CC3)cc2C)c1 ... −4.5%

I am curious: what ASMS ratio (%) n = 2 value has been reported for "CCOc1cncc(-c2ccccc2CCC(=O)N2CCN(c3ccc(C(=O)N(C)CC45CC6CC(CC(C6)C4)C5)cc3)CC2)c1" ? −0.6%

One more molecule: "CCOc1cncc(-c2ccccc2CCC(=O)N2CCN(c3ccc(C(=O)N(CC)CC)cc3)CC2)c1" 0.9%

Record: "CCOc1cncc(-c2ccc(CN3CCN(c4ccc(C(=O)Nc5ccc(OC)cc5)nn4)CC3)c(CC)c2)c1" 1.1%

"CCOc1cncc(-c2ccc(CN3CCN(c4ccc(C(=O)N(C)CC56CC7CC(CC(C7)C5)C6)nn4)CC3)cc2F)c1" , same question. −1.5%

Moving on to "CCOc1cccc(-c2ccccc2CN2CCN(c3ccc(C(=O)Nc4ccc(OC)cc4)cc3)CC2)c1" 0.0%

Field entry: "CCOc1cccc(-c2ccc(CN3CCN(c4ccc(C(=O)Nc5ccc(OC)cc5)nn4)CC3)cc2F)c1" 0.4%

Also, "CCOc1cncc(-c2ccc(CN3CCN(c4ccc(C(=O)Nc5ccc(OC)cc5)nn4)CC3)cc2F)c1" please. 1.8%

And for "CCOc1cccc(-c2csc(C(=O)N3CCN(c4ccc(C(=O)N(CC)CC)nn4)CC3)c2)c1" ? 0.0%

----------
# study target: Bcl-2 protein (Recombinant Human Bcl-2 Protein) (Homo sapiens)
# Construct: purchased Novus NBP2-34889
# measurement description: Binding evaluation of mixture library compounds to Bcl-2 using AS-MS (affinity selection mass spectrometry)
# experimental parameters: AS-MS, mixture library, Bcl-2; replicate n = 2; ASMS Ratio(%)=(A−C)/B×100
Measured ASMS ratio (%) n = 2 accompanies every entry in the list below.
Expressed in %, but write only the number.

As a guide, the following entries are already answered.
CCOc1cccc(-c2cc(C(=O)N3CCN(c4ccc(C(=O)NS(=O)(=O)c5ccc(NCCSc6ccccc6)c([N+](=O)[O-])c5)nn4)CC3)cc(C(F)(F)F)c2)c1 [B2Q017-01] ... 0.2
CCOc1cncc(-c2ccc(CN3CCN(c4ccc(C(=O)NS(=O)(=O)CC56CC7CC(CC(C7)C5)C6)nn4)CC3)cc2C)c1 [B2A074-01] ... 1.9
CCOc1cccc(-c2ccc(CN3CCN(c4ccc(C(=O)NS(=O)(=O)CC56CC7CC(CC(C7)C5)C6)nn4)CC3)cc2C)c1 [B2A073-01] ... 13.5
CCOc1cncc(-c2ccc(CN3CCN(c4ccc(C(=O)NS(=O)(=O)CC56CC7CC(CC(C7)C5)C6)cc4)CC3)cc2F)c1 [B2A052-01] ... 0.0
CCOc1cncc(-c2ccc(CN3CCN(c4ccc(C(=O)N(CC)CC)nn4)CC3)c(OC)c2)c1 [B4J080-01] ... 0.0

// switching to the query molecule
Hi! What's the reported ASMS ratio (%) n = 2 for CCOc1cccc(-c2cc(CN3CCN(c4ccc(C(=O)NS(=O)(=O)c5ccc(NCCSc6ccccc6)c([N+](=O)[O-])c5)cc4)CC3)cc(C(F)(F)F)c2)c1 [B2Q061-01] on Bcl-2 protein (Recombinant Human Bcl-2 Protein) (Homo sapiens)? −17.9

----------
# study target: Bcl-2 protein (Recombinant Human Bcl-2 Protein) (Homo sapiens)
# Construct: purchased Novus NBP2-34889
# measurement description: Binding evaluation of mixture library compounds to Bcl-2 using AS-MS (affinity selection mass spectrometry)
# experimental parameters: AS-MS on the mixture of 1200 library compounds; ASMS Ratio(%)=(A−C)/B×100; replicate n = 1
# Experimental: […] Then, analysis of the 1200 compounds was carried out for samples A, B, and C with TraceFinder 5.1 (Thermo Fisher Scientific) and CHANCE Software (in-house), and the ASMS Ratio (%) was calculated according to the following calculation formula. […]
property measured: ASMS ratio (%) n = 1
# number only, unit % dropped from output

The following compounds have reported results that may help.
CCOc1cncc(-c2cc(CN3CCN(c4ccc(C(=O)N(CC)CC)cc4)CC3)cc(OC(C)C)c2)c1 ... 2.2
CCOc1cccc(-c2cc(C(=O)N3CCN(c4ccc(C(=O)Nc5ccc(OC)cc5)nn4)CC3)cc(C(C)(C)C)c2)c1 ... 6.0
CCOc1cncc(-c2cc(CN3CCN(c4ccc(C(=O)N(C)CC56CC7CC(CC(C7)C5)C6)nn4)CC3)cc(OC(C)C)c2)c1 ... −17.6
CCOc1cncc(-c2ccc(C(=O)N3CCN(c4ccc(C(=O)Nc5ccc(OC)cc5)cc4)CC3)c3ccccc23)c1 ... 4.8
CCOc1cccc(-c2cc(OC)c(CN3CCN(c4ccc(C(=O)N(C)CC56CC7CC(CC(C7)C5)C6)nn4)CC3)c(OC)c2)c1 ... 5.3
CCOc1cccc(-c2cc(CN3CCN(c4ccc(C(=O)Nc5ccc(OC)cc5)cc4)CC3)cc(C(F)(F)F)c2)c1 ... 1.9

Returns the measured ASMS ratio (%) n = 1 for the input compound. Input: "CCOc1cncc(-c2csc(CN3CCN(c4ccc(C(=O)Nc5ccc(OC)cc5)cc4)CC3)c2)c1" 1.9

----------
# study target: Bcl-2 protein (Recombinant Human Bcl-2 Protein) (Homo sapiens)
# Construct: purchased Novus NBP2-34889
# measurement description: Binding evaluation of mixture library compounds to Bcl-2 using AS-MS (affinity selection mass spectrometry)
# experimental parameters: AS-MS, mixture library, Bcl-2; replicate n = 1; ASMS Ratio(%)=(A−C)/B×100
property measured: ASMS ratio (%) n = 1
Write the number in % without appending the unit.

Some compounds with known ASMS ratio (%) n = 1 results, for comparison:
CCOc1cccc(-c2cc(C(=O)N3CCN(c4ccc(C(=O)NS(=O)(=O)CC56CC7CC(CC(C7)C5)C6)cc4)CC3)cc(C(C)(C)C)c2)c1 ... 3.0
CCOc1cncc(-c2cc(OC)c(CN3CCN(c4ccc(C(=O)N(CC)CC)nn4)CC3)c(OC)c2)c1 ... 0.0
CCOc1cccc(-c2cnn(-c3cc(C(=O)N4CCN(c5ccc(C(=O)NS(=O)(=O)c6ccc(NCCSc7ccccc7)c([N+](=O)[O-])c6)nn5)CC4)cc(C(F)(F)F)c3)c2)c1 ... 0.0
CCOc1cncc(-c2ccccc2CN2CCN(c3ccc(C(=O)NS(=O)(=O)CC45CC6CC(CC(C6)C4)C5)cc3)CC2)c1 ... −2.7
CCOc1cccc(-c2csc(C(=O)N3CCN(c4ccc(C(=O)NS(=O)(=O)c5ccc(NCCSc6ccccc6)c([N+](=O)[O-])c5)nn4)CC3)c2)c1 ... 0.0

Name the recorded ASMS ratio (%) n = 1 for "CCOc1cccc(-c2cc(CN3CCN(c4ccc(C(=O)NS(=O)(=O)CC56CC7CC(CC(C7)C5)C6)cc4)CC3)cc(OC(F)(F)F)c2)c1" . 0.5
